Biological target: EGFR (human), P00533 [WT]
Sequence (P00533 whole entry, looked up): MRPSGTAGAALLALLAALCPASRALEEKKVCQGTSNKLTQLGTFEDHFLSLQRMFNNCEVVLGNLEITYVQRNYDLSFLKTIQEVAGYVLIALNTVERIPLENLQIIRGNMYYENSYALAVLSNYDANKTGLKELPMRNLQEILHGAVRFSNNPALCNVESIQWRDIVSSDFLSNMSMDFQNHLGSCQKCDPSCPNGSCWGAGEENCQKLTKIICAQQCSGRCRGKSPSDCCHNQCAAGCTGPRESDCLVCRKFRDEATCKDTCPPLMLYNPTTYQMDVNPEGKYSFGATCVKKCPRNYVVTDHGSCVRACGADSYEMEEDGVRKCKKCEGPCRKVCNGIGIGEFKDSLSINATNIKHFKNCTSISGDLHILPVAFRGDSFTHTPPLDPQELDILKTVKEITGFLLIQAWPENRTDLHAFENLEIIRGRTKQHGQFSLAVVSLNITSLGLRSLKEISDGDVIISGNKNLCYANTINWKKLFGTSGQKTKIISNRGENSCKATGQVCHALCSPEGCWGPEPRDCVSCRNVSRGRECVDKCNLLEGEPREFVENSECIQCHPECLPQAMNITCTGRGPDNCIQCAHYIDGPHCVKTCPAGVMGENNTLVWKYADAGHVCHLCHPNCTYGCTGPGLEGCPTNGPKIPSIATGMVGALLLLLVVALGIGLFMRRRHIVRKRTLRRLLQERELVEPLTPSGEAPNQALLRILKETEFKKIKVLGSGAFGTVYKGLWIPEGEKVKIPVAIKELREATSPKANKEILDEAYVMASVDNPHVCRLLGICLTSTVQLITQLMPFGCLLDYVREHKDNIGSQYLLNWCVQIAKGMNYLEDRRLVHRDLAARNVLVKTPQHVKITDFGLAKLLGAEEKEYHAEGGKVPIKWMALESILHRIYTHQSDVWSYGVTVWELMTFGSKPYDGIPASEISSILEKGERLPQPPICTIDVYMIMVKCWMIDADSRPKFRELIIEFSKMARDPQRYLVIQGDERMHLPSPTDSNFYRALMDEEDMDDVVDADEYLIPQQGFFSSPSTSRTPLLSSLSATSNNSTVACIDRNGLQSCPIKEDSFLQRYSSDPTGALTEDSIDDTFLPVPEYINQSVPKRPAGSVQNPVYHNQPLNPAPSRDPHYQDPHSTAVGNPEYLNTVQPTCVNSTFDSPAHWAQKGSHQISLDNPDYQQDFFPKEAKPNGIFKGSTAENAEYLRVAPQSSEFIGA
Details: a431
Overview of recorded IC50 for various compounds
In your response, the unit should come after the numeric value.

Examples from the recorded data:
{"compound structure": "C=C(CN1CCOCC1)C(=O)Nc1cccc(Nc2ncc(Cl)c(Nc3ccccc3C(=O)C(=O)N(C)C)n2)c1", "tested system": "EGFR (human), P00533 [WT]", "result": "0.1 µM"}
{"compound structure": "COc1cc(N2CCN(C(C)=O)CC2)ccc1Nc1ncc(Cl)c(Nc2ccccc2C(=O)C(=O)N(C)C)n1", "tested system": "EGFR (human), P00533 [WT]", "result": "0.05 µM"}
{"compound structure": "COc1cc(N2CCC(N(C)C)CC2)ccc1Nc1ncc(Cl)c(Nc2ccccc2C(=O)C(=O)N(C)C)n1", "tested system": "EGFR (human), P00533 [WT]", "result": "0.26 µM"}

--- query ---
So, C=CC(=O)Nc1cc(Nc2ncc(Cl)c(Nc3ccccc3C(=O)C(=O)N(C)C)n2)c(OC)cc1N1CCN(C)CC1 ? Its IC50 was 0.05 µM

###

Assay system EGFR (Human), P00533 [Assessment of HCC827 (EGFR Del) Cell Proliferation]; read-out recorded as log10 IC50.
Kindly note that the scale is log10 and the underlying IC50 is in µM.

{"compound structure": "C=CC(=O)Nc1cc(Nc2ncc(Cl)c(Nc3ccccc3C(=O)C(=O)N(C)C)n2)ccc1OC", "tested system": "EGFR (Human), P00533 [Assessment of HCC827 (EGFR Del) Cell Proliferation]", "measure name": "log10 IC50", "quantitative result": -0.92}
{"compound structure": "C/C=C/C(=O)Nc1ccc(OC)c(Nc2ncc(Cl)c(Nc3ccccc3C(=O)C(=O)N(C)C)n2)c1", "tested system": "EGFR (Human), P00533 [Assessment of HCC827 (EGFR Del) Cell Proliferation]", "measure name": "log10 IC50", "quantitative result": 0.02}
{"compound structure": "COc1cc(Nc2ncc(Cl)c(Nc3ccccc3C(=O)C(=O)N(C)C)n2)ccc1F", "tested system": "EGFR (Human), P00533 [Assessment of HCC827 (EGFR Del) Cell Proliferation]", "measure name": "log10 IC50", "quantitative result": 0.37}
{"compound structure": "CNC(=O)C(=O)c1ccccc1Nc1nc(Nc2ccc(N3CCN(C)CC3)c(OC)c2)ncc1Cl", "tested system": "EGFR (Human), P00533 [Assessment of HCC827 (EGFR Del) Cell Proliferation]", "measure name": "log10 IC50", "quantitative result": -0.06}
{"compound structure": "C=CC(=O)Nc1cc(Nc2ncc(Cl)c(Nc3ccccc3C(=O)C(=O)NC)n2)ccc1OC", "tested system": "EGFR (Human), P00533 [Assessment of HCC827 (EGFR Del) Cell Proliferation]", "measure name": "log10 IC50", "quantitative result": -0.35}

Considering C=CC(=O)Nc1cccc(Nc2ncc(Cl)c(Nc3ccccc3C(=O)C(=O)N(C)C)n2)c1 , its log10 IC50 with EGFR (Human), P00533 [Assessment of HCC827 (EGFR Del) Cell Proliferation] was recorded as -1.15

The value of log10 IC50 recorded for COc1cc(N2CCN(C(C)=O)CC2)ccc1Nc1ncc(Cl)c(Nc2ccccc2C(=O)C(=O)N(C)C)n1 when tested on EGFR (Human), P00533 [Assessment of HCC827 (EGFR Del) Cell Proliferation] reads -0.27

Assay EGFR (Human), P00533 [Assessment of HCC827 (EGFR Del) Cell Proliferation], sample C=CC(=O)Nc1cc(Nc2ncc(Cl)c(Nc3ccccc3C(=O)C(=O)NC)n2)c(F)cc1OC , log10 IC50 read: 0.08

Sample C=CC(=O)Nc1cc(Nc2ncc(Cl)c(Nc3ccccc3C(=O)C(=O)N(C)C)n2)c(F)cc1OC , system: EGFR (Human), P00533 [Assessment of HCC827 (EGFR Del) Cell Proliferation]. Its log10 IC50 is 0.08
